System: C. glabrata 3 strains
Construct: 3 clinical isolates
Assay: microbe, parasite or virus in culture
Parameters: species or system clinical Candida isolates; broth microdilution antifungal MIC, visual growth inhibition, CLSI
Settings: Nakaseomyces glabratus, 24 h, read-out: Tested Fungi (MIC Values μg/mL) / C. glabrata 3 strains
value kind: MIC

A selection of reference data follows.
O=C(N/N=C1\SCC(=O)N1c1cccc(Br)c1)C(O)c1ccccc1 (centres unmarked) ... 8 to 32 µg/mL
O=C(N/N=C1\SCC(=O)N1c1ccc(Cl)cc1)C(O)c1ccccc1 (centres unmarked) ... 4 to 8 µg/mL
CC1S/C(=N\NC(=O)C(O)c2ccccc2)N(c2ccc(Cl)cc2)C1=O (centres unmarked) ... 8 to 32 µg/mL

## Task MIC lookup needed for CC1S/C(=N\NC(=O)C(O)c2ccccc2)N(c2cccc(Cl)c2)C1=O (centres unmarked) , thanks.
## Result 8 to 32 µg/mL

## Task Note, next up: O=C(N/N=C1\SCC(=O)N1c1ccc([N+](=O)[O-])cc1)C(O)c1ccccc1 (centres unmarked)
## Result 8 to 32 µg/mL
